Tested on: TO-3-N3 (biotin conjugate)
assay_protocol: pull-down binding Z-score (relative to library population); higher = stronger binding
test_conditions: RNA library: Library-2
readout_name: pull-down binding Z-score

Data request: Dear colleague, I am looking for the recorded pull-down binding Z-score of the following sequence: UGGUACUAUCUAUACAGAACUGGAACCA [SHAPE_invitro_SARS-CoV-2_Motif_233]
Data returned: -0.352

Data request: Returns the measured pull-down binding Z-score for the input sequence. Input: GGAUGUCAAUCC [IAV_invivo_PB1_2_Motif_2+IAV_invivo_PB1_2_Motif_2]
Data returned: 0.302

Data request: Consider the sequence shown here: UAACAGUUACACCGGAAGCCAAUAUGGAUCAAGAAUCCUUUGGUGGUGCAUCGUGUUG What is its recorded pull-down binding Z-score?
Data returned: -0.833

Data request: Would you mind telling me what pull-down binding Z-score value was observed for AUGCCUUUUUACCUUUUGCUAUGGGUAUUAUUGCUAUGUCUGCUUUUGCAAUGAUGUUUGUCAAACAUAAGCAUGCAU [DMSMaPseq_invitro_SARS-CoV-2_Multi_36_ComplexLevel_1] ?
Data returned: 0.159

Data request: Field request: pull-down binding Z-score | item: AUUGCAUGUUCUGGUGGUACCCAUGCAAU [hsa-mir-33a]
Data returned: 0.18

Data request: Bench note: what pull-down binding Z-score did GCUUCAAGAGAGC show?
Data returned: -0.0727

---

Test system: TO-N3-2 (biotin conjugate)
assay_protocol: pull-down binding Z-score (relative to library population); higher = stronger binding
test_conditions: RNA library: Library-2
For each record, write down the corresponding pull-down binding Z-score.
Response field accepts a number only; no unit should be typed.

Data request: Would you mind telling me what pull-down binding Z-score value was observed for AUGAGAAAUUGGUUUCAA [hsa-mir-8063] ?
Data returned: -0.557

Data request: // returns reported pull-down binding Z-score for input AAAUAAGUAUGAUACUUACCUG [U1snRNP5ss-4]
Data returned: -0.672

Data request: # input sequence: CCUGCCCAAAUGGUGGAGCAGAUUCGAGGGGCAGG [hsa-mir-4436b-2_4436b-1] ; wanted: its pull-down binding Z-score
Data returned: -0.125

Data request: Query: pull-down binding Z-score; subject: GGCACAAAUGCAACACUGCAUUACCAUGCGGUUGUGCC [3-way model-1_rpoH]
Data returned: -1.27

Data request: Please report the recorded pull-down binding Z-score for UUUCUGUUGUCUAAAAGAAAAGAAA [hsa-mir-527] .
Data returned: -0.575

Data request: Requested field: pull-down binding Z-score. Item: ACAGCGCCACGGAAGAGGACGCA [hsa-mir-941-4_941-5_941-2_941-3_941-1]
Data returned: 0.874

Data request: Can you share its pull-down binding Z-score? I mean this sequence: UGGUUGGUUGGUUGGUUGGUUGGU [G4_r(UGGU)6]
Data returned: 4.58

Data request: Bench note: what pull-down binding Z-score did UCCUAUUUCUGAACAUGACUACCAGAUUGGUGGUUAUACUGAAAAAUGGGA show?
Data returned: -0.953

---

Tested on: TO-N3 (biotin conjugate)
assay_protocol: pull-down binding Z-score (relative to library population); higher = stronger binding
test_conditions: RNA library: Library-2
Exercise: for every item that follows, state its recorded pull-down binding Z-score.
Answer using only a numeral; do not append any unit.

Data request: Entry CUGUUGAUUCAUCACAG : reported pull-down binding Z-score = ?
Data returned: 1.14

Data request: Endpoint output: pull-down binding Z-score of UGGACUGUGUACCAAUUUCCA [hsa-mir-194-1] . Value?
Data returned: -0.21

Data request: Quick one: pull-down binding Z-score of GCAGCACUGUGCUGGGGAUGUUGC [hsa-mir-1301] ?
Data returned: 1.04

Data request: Reported pull-down binding Z-score, sequence GGACAUCCUUCCAUAGUAAAUAAGCGGUGCC [hsa-mir-8064] : ____
Data returned: -0.0974

Data request: Give the measured pull-down binding Z-score of UGGAAUUGCAAUGUCGAUAGAUAUCCUGCUAAUUCCA .
Data returned: 0.0215

Data request: Requested read-out: pull-down binding Z-score. Entry: GGGGAUGGACUGGAAGUGGGCAGCAUGGAGCUGACCUUCAUCAUGGCUUGGCCAACAUAAUGCCUC [hsa-mir-1236]
Data returned: 1.98

Data request: Quick one: pull-down binding Z-score of CCAUGGUGUGCUCUGAUCCCCCUGUGG [hsa-mir-6848] ?
Data returned: 0.592

Data request: Entry CUGAUCCUAGUUUUCUGGGUAG [SHAPE_invivo_SARS-CoV-2_Motif_108] : reported pull-down binding Z-score = ?
Data returned: -0.0828

Data request: // pull-down binding Z-score lookup, key: GCAGUCUGCUUUGUGCCAACACUGGGGUGAUGACUGC [hsa-mir-3157]
Data returned: 0.442

Data request: For the sequence ACGUGACCUCCUGGGCCUG [hsa-mir-6770-1_6770-3_6770-2] , what pull-down binding Z-score is on record?
Data returned: 0.829

Data request: What pull-down binding Z-score value was documented for this sequence, GACAGCAGAUAUAGUUGUC ?
Data returned: 0.331

Data request: Can you share its pull-down binding Z-score? I mean this sequence: GCACACUAGAACCAGAAUAUUUCAAUUCAGUGUGU
Data returned: -1.2

Data request: Could you share which pull-down binding Z-score value was measured for AGUUGUGAAUUCUCAAAACACCU [hsa-mir-660] ?
Data returned: -0.417

Data request: Returns the measured pull-down binding Z-score for the input sequence. Input: CAUGAUUUGGAAAAAUUACUG [hsa-mir-6128]
Data returned: -0.151

Data request: Give its pull-down binding Z-score value. Item: GGCUUUGGCAUCUAUGAAAGCC [hsa-mir-4755]
Data returned: 0.507

Data request: Entry under review: CCCAGAUGAAGGCACAGCUGGAGUGGAGUCCGCUGUUCUGAGGGGAUUCCUCAUUCUGGG [IAV_invivo_PB2_1_Motif_33+IAV_invivo_PB2_1_Motif_33] . Reported pull-down binding Z-score?
Data returned: 0.671

Data request: Record request: pull-down binding Z-score value, item GGUACGUUAAUAGUUAAUAGCGUACUUCUUUUUCUUGCUUUCGUGGUAUUCUUGCUAGUUACACUAGCCAUCCUUACUGCGCUUCGAUUGUGUGCGUACU
Data returned: 0.41

Data request: Item under review: AGUACACCUUUGAAAAAGGUGACU . Reported pull-down binding Z-score?
Data returned: -1.22

Data request: // query pull-down binding Z-score value for entry GUUCUUGUAUGUGAGAAC [IAV_invivo_PA_3_Motif_23+IAV_invivo_PA_3_Motif_23]
Data returned: -0.949

Data request: Given the sequence UCUGUUUUAAGUAACAGA [hsa-mir-7705] , what is its reported pull-down binding Z-score?
Data returned: -1.32

Data request: Can you look up the measured pull-down binding Z-score of UAGUGGAAAGAGCACUG [hsa-mir-378b] for me?
Data returned: -0.347

Data request: Endpoint output: pull-down binding Z-score of CAUUGUAAUAGUUCAUAUGGGCACUG [hsa-mir-3660] . Value?
Data returned: 0.0211

---

Test system: TO-3-N3 (biotin conjugate)
assay_protocol: pull-down binding Z-score (relative to library population); higher = stronger binding
test_conditions: RNA library: Library-2
Classify as follows. Reported pull-down binding Z-score greater than or equal to -0.2: 1. Reported pull-down binding Z-score below: -1.

Data request: Exam item: decide whether the reported pull-down binding Z-score for UUUCUAUAACUGGAUGAAA [hsa-mir-498] is at least -0.2.
Data returned: -1

Data request: # bool: pull-down binding Z-score of CCUUGCGAAAGGAGAGAAGGCUAAUGUGCUAAUUGGGCAAGG [IAV_invivo_PB2_1_Motif_34+IAV_invivo_PB2_1_Motif_34] >= -0.2
Data returned: -1

Data request: Has UCCUCCAUGCUUGGAAAAUGCAGGGAGGA [hsa-mir-764] a recorded pull-down binding Z-score greater than or equal to -0.2?
Data returned: -1

Data request: Assess whether reported pull-down binding Z-score for CGGACGUUGCUCUCUACCCCG [hsa-mir-1247] sits at -0.2 or higher.
Data returned: 1

Data request: API: above_or_equal(metric=pull-down binding Z-score, cutoff=-0.2) for item ACAGUGGACUUGGUGACGCUGU [hsa-mir-675]
Data returned: -1

Data request: Would you say AGACUCUGGAUUUUACACUUGGAGUG [hsa-mir-887] shows pull-down binding Z-score at minimum -0.2?
Data returned: -1

Data request: Does GGCCGCAAAUUGCACAAUUUGCCCCC [SHAPE_invivo_SARS-CoV-2_Motif_557] have a reported pull-down binding Z-score of at least -0.2?
Data returned: 1

---

Provide the recorded pull-down binding Z-score for the entries that follow.
Test system: G-clamp-N3 (biotin conjugate)
assay_protocol: pull-down binding Z-score (relative to library population); higher = stronger binding
test_conditions: RNA library: Library-1 (pre-miRNA loops + repeats)
Quick one: just the number, no unit, thanks!

Data request: Reported pull-down binding Z-score for G-clamp-N3 (biotin conjugate), given UGAGCAUUUUUACUGAAUUGCCA [hsa-mir-6715a] ?
Data returned: 0.49

Data request: State its pull-down binding Z-score on G-clamp-N3 (biotin conjugate): ACCCUGCAGCCCCAGCUGGAGGAUGAGGAGAUGCUGGGCUUGGGU [hsa-mir-4313]
Data returned: 1.16

Data request: // fetch G-clamp-N3 (biotin conjugate) pull-down binding Z-score for CCGCCCUCGUGUCUGUGGCGGUGG [hsa-mir-663a]
Data returned: 0.239

Data request: Give recorded pull-down binding Z-score with G-clamp-N3 (biotin conjugate) for the following sequence: GCGGUUUUUGCUAUUGGUUUUAAUGGC [hsa-mir-548au]
Data returned: -0.139
